ASSAY: probe aCHRDL2 binding to arrayed compounds – biochemical, biotinylated probe, 635/667 nm fluorescence, primary screen (AID 1100)
ASSAY SETUP: small-molecule microarray, higher = more signal
RESULT TYPE: composite z-score

[
  {
    "COMPOUND": "[N-]=[N+]=NCc1ccccc1C[C@]1(C(=O)NCCN2CCOCC2)COC(c2ccc(OCCCO)cc2)=N1",
    "ASSAY VALUE": 0.853
  },
  {
    "COMPOUND": "COCCOC(=O)N1C(=O)[C@@]2(c3cc(C#Cc4ccc(OC)cc4)ccc31)[C@H](c1ccc(OCCO)cc1)N1[C@H](c3ccccc3)[C@H](c3ccccc3)OC(=O)[C@H]1[C@@H]2C(N)=O",
    "ASSAY VALUE": 0.608
  },
  {
    "COMPOUND": "C[C@H]1NC(=O)C([C@@H](C)OCc2ccccc2)NC(=O)[C@@]23C(=O)N[C@@H](Cc4ccccc4)C2[C@H](C)[C@@]2(C)O[C@H]2C3/C=C/CC/C=C/CNC1=O (stereo partly drawn)",
    "ASSAY VALUE": -0.298
  },
  {
    "COMPOUND": "COC(=O)[C@@]1(Cc2ccc(F)cc2)[C@H]2c3cc(C(=O)N(C)C)n(Cc4ccc(C)c(F)c4F)c3C[C@H]2CN1C(=O)c1ccccc1",
    "ASSAY VALUE": 1.03
  },
  {
    "COMPOUND": "COCCOC(=O)N1C(=O)[C@@]2(c3cc(C#CCNC(N)=O)ccc31)[C@H](C(N)=O)[C@H]1C(=O)O[C@H](c3ccccc3)[C@H](c3ccccc3)N1[C@@H]2c1ccc(OCCO)cc1",
    "ASSAY VALUE": 0.721
  },
  {
    "COMPOUND": "COc1ccccc1CN1C(=O)c2ccccc2[C@](Cc2ccccc2I)(C(=O)NCCN2CCOCC2)[C@@H]1c1ccc(CO)cc1",
    "ASSAY VALUE": 0.227
  },
  {
    "COMPOUND": "O=C1c2ccccc2[C@](Cc2ccccc2I)(C(=O)NC2CC2)[C@H](c2ccc(CO)cc2)N1Cc1ccccc1Cl",
    "ASSAY VALUE": 0.995
  },
  {
    "COMPOUND": "NC(=O)[C@H]1[C@@H]2C(=O)O[C@@H](c3ccccc3)[C@@H](c3ccccc3)N2[C@@H](c2ccc(O)cc2)[C@]12C(=O)Nc1ccc(C#CC3(O)CCCCCC3)cc12",
    "ASSAY VALUE": 0.0715
  },
  {
    "COMPOUND": "CN1C(=O)C2C=CC(C(O)COCc3ccccc3)N(Nc3ccccc3)C2C1=O (stereo not drawn)",
    "ASSAY VALUE": 0.285
  },
  {
    "COMPOUND": "COC(=O)[C@@]1(Cc2ccccc2N=[N+]=[N-])N=C(c2ccc(OCCCO)cc2)O[C@H]1c1ccccc1",
    "ASSAY VALUE": 0.87
  },
  {
    "COMPOUND": "COc1ccc(C(=O)Nc2ccc(CN3C(=O)[C@@]4(O[C@@H](CC(=O)N5Cc6ccccc6C[C@H]5CO)[C@H]([Si](C)(C)c5ccc(OC)cc5)[C@H]4C)c4ccccc43)cc2)cc1",
    "ASSAY VALUE": -0.342
  },
  {
    "COMPOUND": "O=C1N(Cc2ccccc2)c2ccccc2[C@H]2OC(c3ccc(OCCCO)cc3)=N[C@@]12CCS(=O)(=O)c1ccccc1",
    "ASSAY VALUE": 0.584
  },
  {
    "COMPOUND": "CC(C)[Si](C#C[Si](C(C)C)(C(C)C)C(C)C)(O[C@H](C)c1cn(Cc2cccc(Cl)c2)nn1)C(C)C",
    "ASSAY VALUE": -0.578
  },
  {
    "COMPOUND": "O=C1NC(=O)C2C1C=CC(C(O)c1ccc(-c3ccccc3)s1)N2Nc1ccccn1 (stereo not drawn)",
    "ASSAY VALUE": 1.25
  },
  {
    "COMPOUND": "COCCOC(=O)N1C(=O)[C@@]2(c3ccccc31)[C@H](c1ccccc1OCCO)N1[C@H](c3ccccc3)[C@H](c3ccccc3)OC(=O)[C@H]1[C@@H]2C(=O)N1CCc2cc(OC)c(OC)cc2C1",
    "ASSAY VALUE": 0.49
  },
  {
    "COMPOUND": "CC(C)C[C@@H]1NC(=O)[C@@H]2C[C@H](C(=O)NCc3ccc(F)cc3)[C@H](c3ccc(O)cc3)N2C1=O",
    "ASSAY VALUE": -0.0756
  },
  {
    "COMPOUND": "O=C1OCCC=C[C@H]2OC34C=CCN(Cn5nnc6ccccc65)C(=O)[C@H]3N(CCCCCO)C(=O)[C@@H]4C12 (stereo partly drawn)",
    "ASSAY VALUE": 0.311
  },
  {
    "COMPOUND": "COCCCNC(=O)[C@@H]1c2ccccc2C(=O)N(c2ccc(C)cn2)[C@H]1c1ccc(CO)cc1",
    "ASSAY VALUE": 1.01
  },
  {
    "COMPOUND": "CO[C@H]1O[C@H](CO)[C@@H](OC(=O)Nc2ccc(C(F)(F)F)cc2)[C@H](OC(=O)Nc2ccccc2)[C@H]1OC(=O)Nc1ccccc1",
    "ASSAY VALUE": 0.832
  },
  {
    "COMPOUND": "COC(=O)[C@@]1(Cc2ccc(OC)cc2)[C@H]2c3cc(C(=O)N4CCCC4)n(CCc4ccc(O)c(OC)c4)c3C[C@H]2CN1C(=O)c1ccccc1",
    "ASSAY VALUE": 1.09
  },
  {
    "COMPOUND": "C[N+](C)(C)CCCCNC(=O)[C@H]1C[C@H]2C(=O)NCC(=O)N2[C@H]1c1ccc(O)cc1",
    "ASSAY VALUE": -0.31
  },
  {
    "COMPOUND": "COCCOC(=O)N1C(=O)[C@@]2(c3cc(C#CCCO)ccc31)[C@H](c1ccc(OCCO)cc1)N1[C@H](c3ccccc3)[C@H](c3ccccc3)OC(=O)[C@H]1[C@@H]2C(=O)N1CCc2cc(OC)c(OC)cc2C1",
    "ASSAY VALUE": 0.232
  },
  {
    "COMPOUND": "COC(=O)C(CC#Cc1ccc2c(c1)[C@]1(C(=O)N2)[C@H](c2ccc(O)cc2)N2[C@H](c3ccccc3)[C@H](c3ccccc3)OC(=O)[C@H]2[C@@H]1C(N)=O)C(=O)OC",
    "ASSAY VALUE": 0.613
  },
  {
    "COMPOUND": "CCOC(=O)C1=CCC(c2cccc(Cl)c2)O1 (stereo not drawn)",
    "ASSAY VALUE": -0.0411
  },
  {
    "COMPOUND": "O=C1N(CCS(=O)(=O)c2ccccc2)Cc2ccccc2C[C@@]12COC(c1ccc(OCCCO)cc1)=N2",
    "ASSAY VALUE": 1.26
  },
  {
    "COMPOUND": "O=C1CSC(c2cccc([N+](=O)[O-])c2)N1c1ccccc1 (stereo not drawn)",
    "ASSAY VALUE": -0.342
  },
  {
    "COMPOUND": "C[C@@]1([C@@H](NC(=O)c2cccs2)c2ccc(-c3ccccc3)cc2)C[C@H]1C1CCCCC1",
    "ASSAY VALUE": 0.126
  },
  {
    "COMPOUND": "Cc1ccccc1C(O)C1C=CC2C(=O)N(C)C(=O)C2N1Nc1ccc([N+](=O)[O-])cc1[N+](=O)[O-] (stereo not drawn)",
    "ASSAY VALUE": 0.831
  }
]
